SYSTEM TESTED: GRP receptors on rat pancreatic acini (Rattus norvegicus, UniProt P52500)
Construct: from tissue; host or cells: dispersed pancreatic acini
Sequence (P52500 whole entry): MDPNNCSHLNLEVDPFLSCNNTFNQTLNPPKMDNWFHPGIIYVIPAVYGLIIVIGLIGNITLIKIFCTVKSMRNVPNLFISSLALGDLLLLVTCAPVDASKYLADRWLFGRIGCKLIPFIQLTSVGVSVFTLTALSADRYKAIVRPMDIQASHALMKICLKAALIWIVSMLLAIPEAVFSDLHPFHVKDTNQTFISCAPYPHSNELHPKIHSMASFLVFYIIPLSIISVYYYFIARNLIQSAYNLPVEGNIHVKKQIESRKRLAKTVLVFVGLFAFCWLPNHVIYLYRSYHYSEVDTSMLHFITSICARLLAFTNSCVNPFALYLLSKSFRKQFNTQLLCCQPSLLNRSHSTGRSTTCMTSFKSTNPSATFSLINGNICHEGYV
ASSAY: Binding of 125I-[Tyr4]bombesin to pancreatic acini
SETTINGS: read-out: Ki 125I-[Tyr4]Bn Binding, GRP Receptor, Rat Pancreatic Acini; Ki by Cheng method
Where a SMILES comes first, the peptide text is derived from it. Bridges are numbered along the chain shown (N, C = ends). [ ]: non-standard residue; d: D form. 2Nal = N[C@@H](Cc1ccc2ccccc2c1)C(=O)O; d2Nal = N[C@H](Cc1ccc2ccccc2c1)C(=O)O; Lys(iPr) = CC(C)NCCCC[C@H](N)C(=O)O
Lab note - cut at 30 µM for Ki: 1.0 if strictly below, 0.0 if not.

Recorded results for 3 molecules are shown here.
>  <MOLECULE>
C[C@@H](O)[C@H](NC(=O)[C@@H]1CSSC[C@H](NC(=O)[C@H](N)Cc2ccc3ccccc3c2)C(=O)N[C@@H](Cc2ccc(O)cc2)C(=O)N[C@H](Cc2c[nH]c3ccccc23)C(=O)N[C@@H](CCCCN)C(=O)N[C@@H](Cc2ccc3ccccc3c2)C(=O)N1)C(N)=O [Analog #2]

>  <GROUP>
1.0

$$$$
>  <MOLECULE>
C[C@@H](O)[C@@H]1NC(=O)[C@H](CCCCN)NC(=O)[C@@H](Cc2c[nH]c3ccccc23)NC(=O)[C@H](Cc2ccc(O)cc2)NC(=O)[C@@H](NC(=O)[C@H](N)Cc2ccccc2)CSSC[C@@H](C(=O)N[C@@H](Cc2ccc3ccccc3c2)C(N)=O)NC1=O [Analog #7] (H-[dF]CY[dW]KTC[2Nal]-NH2; disulfide 2-7)

>  <GROUP>
0.0

$$$$
>  <MOLECULE>
CC(C)[C@@H]1NC(=O)[C@H](CCCCN)NC(=O)[C@@H](Cc2c[nH]c3ccccc23)NC(=O)[C@H](Cc2ccc(O)cc2)NC(=O)[C@@H](NC(=O)[C@H](N)Cc2ccc3ccccc3c2)CSSC[C@@H](C(=O)N[C@@H](Cc2ccc3ccccc3c2)C(N)=O)NC1=O [Analog #1] (H-[d2Nal]CY[dW]KVC[2Nal]-NH2; disulfide 2-7)

>  <GROUP>
1.0

$$$$

Quick check: does CC(C)[C@@H]1NC(=O)[C@H](CCCCN)NC(=O)[C@@H](Cc2c[nH]c3ccccc23)NC(=O)[C@H](Cc2ccc(O)cc2)NC(=O)[C@@H](NC(=O)[C@H](N)Cc2ccccc2)CSSC[C@@H](C(=O)N[C@@H](Cc2ccc3ccccc3c2)C(N)=O)NC1=O [Analog #4] (H-[dF]CY[dW]KVC[2Nal]-NH2; disulfide 2-7) have Ki under 30 µM? 1.0

Quick check: does CC(C)NCCCC[C@@H]1NC(=O)[C@@H](Cc2c[nH]c3ccccc23)NC(=O)[C@H](Cc2ccc(O)cc2)NC(=O)[C@@H](NC(=O)[C@H](N)Cc2ccccc2)CSSC[C@@H](C(=O)N[C@@H](Cc2ccc3ccccc3c2)C(N)=O)NC(=O)[C@H]([C@@H](C)O)NC1=O [Analog #15] (H-[dF]CY[dW][Lys(iPr)]TC[2Nal]-NH2; disulfide 2-7) have Ki under 30 µM? 0.0

====

SYSTEM TESTED: rat NMB receptor (Rattus norvegicus, UniProt P24053)
Construct: a full length NMB-preferring bombesin receptor clone generated from rat esophagus; expressed in transfected cells
Sequence (P24053 1-390): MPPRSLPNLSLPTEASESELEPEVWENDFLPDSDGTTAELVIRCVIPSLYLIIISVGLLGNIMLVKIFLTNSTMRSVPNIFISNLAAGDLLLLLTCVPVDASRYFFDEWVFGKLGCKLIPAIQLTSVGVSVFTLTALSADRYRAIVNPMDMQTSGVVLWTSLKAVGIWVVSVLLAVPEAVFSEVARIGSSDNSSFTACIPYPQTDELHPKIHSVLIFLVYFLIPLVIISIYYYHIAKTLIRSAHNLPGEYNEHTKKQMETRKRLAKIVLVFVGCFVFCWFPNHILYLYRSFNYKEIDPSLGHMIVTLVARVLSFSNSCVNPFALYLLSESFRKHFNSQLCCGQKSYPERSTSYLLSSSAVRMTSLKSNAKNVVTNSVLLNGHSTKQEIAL
ASSAY: Binding of 125I-[D-Tyr0]NMB to NMB-R transfected BALB 3T3 cells
SETTINGS: structure-function comparison from Table 1
Where a SMILES comes first, the peptide text is derived from it. Bridges are numbered along the chain shown (N, C = ends). [ ]: non-standard residue; d: D form. 2Nal = N[C@@H](Cc1ccc2ccccc2c1)C(=O)O; d2Nal = N[C@H](Cc1ccc2ccccc2c1)C(=O)O
MEASUREMENT LABEL: fold decrease in NMB receptor affinity compared with cyclo SS-octa (#1) (fold)
Reply with just the number (in fold).

Given the entry CC(C)[C@@H]1NC(=O)[C@H](Cc2c[nH]cn2)NC(=O)[C@@H](Cc2c[nH]c3ccccc23)NC(=O)[C@H](Cc2ccc(O)cc2)NC(=O)[C@@H](NC(=O)[C@H](N)Cc2ccc3ccccc3c2)CSSC[C@@H](C(=O)N[C@@H](Cc2ccc3ccccc3c2)C(N)=O)NC1=O [Analog #14] (H-[d2Nal]CY[dW]HVC[2Nal]-NH2; disulfide 2-7; N-terminus assumed) , report its measured fold decrease in NMB receptor affinity compared with cyclo SS-octa (#1). 50

====

Where a SMILES comes first, the peptide text is derived from it. Bridges are numbered along the chain shown (N, C = ends). [ ]: non-standard residue; d: D form. 2Nal = N[C@@H](Cc1ccc2ccccc2c1)C(=O)O; d2Nal = N[C@H](Cc1ccc2ccccc2c1)C(=O)O
A set of molecules tested on NMB receptor (Rattus norvegicus, UniProt P24053), with measured Ki:

Consider the reported Ki for these molecules:
>  <MOLECULE>
CC(C)[C@@H]1NC(=O)[C@H](Cc2c[nH]cn2)NC(=O)[C@@H](Cc2c[nH]c3ccccc23)NC(=O)[C@H](Cc2ccc(O)cc2)NC(=O)[C@@H](NC(=O)[C@H](N)Cc2ccc3ccccc3c2)CSSC[C@@H](C(=O)N[C@@H](Cc2ccc3ccccc3c2)C(N)=O)NC1=O [Analog #14] (H-[d2Nal]CY[dW]HVC[2Nal]-NH2; disulfide 2-7; N-terminus assumed)

>  <Ki>
470 nM

$$$$
>  <MOLECULE>
CC(C)[C@@H]1NC(=O)[C@H](CCCCN)NC(=O)[C@@H](Cc2c[nH]c3ccccc23)NC(=O)[C@H](Cc2ccc(O)cc2)NC(=O)[C@@H](NC(=O)[C@H](N)Cc2c[nH]c3ccccc23)CSSC[C@@H](C(=O)N[C@@H](Cc2ccc3ccccc3c2)C(N)=O)NC1=O [Analog #12] (H-[dW]CY[dW]KVC[2Nal]-NH2; disulfide 2-7)

>  <Ki>
1180 nM

$$$$
>  <MOLECULE>
CC(C)[C@@H]1NC(=O)[C@H](CCCCN)NC(=O)[C@@H](Cc2c[nH]c3ccccc23)NC(=O)[C@H](Cc2ccc(O)cc2)NC(=O)[C@@H](NC(=O)[C@H](N)Cc2ccc3ccccc3c2)CSSC[C@@H](C(=O)N[C@H](Cc2ccc3ccccc3c2)C(N)=O)NC1=O [Analog #8] (H-[d2Nal]CY[dW]KVC[d2Nal]-NH2; disulfide 2-7)

>  <Ki>
1480 nM

$$$$

Proceeding to the next molecule to report its Ki.
Given the entry C[C@@H](O)[C@@H]1NC(=O)[C@H](CCCCN)NC(=O)[C@@H](Cc2c[nH]c3ccccc23)NC(=O)[C@H](Cc2ccc(O)cc2)NC(=O)[C@@H](NC(=O)[C@H](N)Cc2ccccc2)CSSC[C@@H](C(=O)N[C@@H](Cc2ccc3ccccc3c2)C(N)=O)NC1=O [Analog #7] (H-[dF]CY[dW]KTC[2Nal]-NH2; disulfide 2-7) , report its measured Ki. 740 nM

====

The reader will find reported Ki values listed item by item below.
SYSTEM TESTED: NMB receptors on C-6 cells (Rattus norvegicus)
Construct: endogenous in cells
Sequence (P24053 1-390): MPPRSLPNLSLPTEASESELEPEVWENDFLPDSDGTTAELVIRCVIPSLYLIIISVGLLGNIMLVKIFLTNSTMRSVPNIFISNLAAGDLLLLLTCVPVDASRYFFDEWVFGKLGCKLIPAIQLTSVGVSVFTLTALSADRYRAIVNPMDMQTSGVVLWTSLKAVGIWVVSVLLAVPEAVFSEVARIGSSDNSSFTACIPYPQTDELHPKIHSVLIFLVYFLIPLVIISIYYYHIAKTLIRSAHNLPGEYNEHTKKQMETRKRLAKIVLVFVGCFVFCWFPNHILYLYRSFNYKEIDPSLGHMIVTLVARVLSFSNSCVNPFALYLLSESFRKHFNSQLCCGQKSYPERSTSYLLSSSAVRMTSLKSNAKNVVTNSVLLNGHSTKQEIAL
ASSAY: Binding of 125I-[D-Tyr0]NMB to C-6 glioblastoma cells
SETTINGS: Ki by Cheng method, read-out: Ki 125I-NMB Binding, NMB Receptor, C-6 Cells
Where a SMILES comes first, the peptide text is derived from it. Bridges are numbered along the chain shown (N, C = ends). [ ]: non-standard residue; d: D form. 2Nal = N[C@@H](Cc1ccc2ccccc2c1)C(=O)O; d2Nal = N[C@H](Cc1ccc2ccccc2c1)C(=O)O; Lys(Et2) = CCN(CC)CCCC[C@H](N)C(=O)O

Given the entry CC(C)[C@@H]1NC(=O)[C@H](CCCCN)NC(=O)[C@@H](Cc2c[nH]c3ccccc23)NC(=O)[C@H](Cc2ccc(O)cc2)NC(=O)[C@@H](NC(=O)[C@H](N)Cc2c[nH]c3ccccc23)CSSC[C@@H](C(=O)N[C@@H](Cc2ccc3ccccc3c2)C(N)=O)NC1=O [Analog #12] (H-[dW]CY[dW]KVC[2Nal]-NH2; disulfide 2-7) , report its measured Ki. 1780 nM

Given the entry CCN(CC)CCCC[C@@H]1NC(=O)[C@@H](Cc2c[nH]c3ccccc23)NC(=O)[C@H](Cc2ccc(O)cc2)NC(=O)[C@@H](NC(=O)[C@H](N)Cc2ccccc2)CSSC[C@@H](C(=O)N[C@@H](Cc2ccc3ccccc3c2)C(N)=O)NC(=O)[C@H]([C@@H](C)O)NC1=O [Analog #16] (H-[dF]CY[dW][Lys(Et2)]TC[2Nal]-NH2; disulfide 2-7) , report its measured Ki. 1090 nM

Given the entry CC(C)[C@@H]1NC(=O)[C@H](CCCCN)NC(=O)[C@@H](Cc2c[nH]c3ccccc23)NC(=O)[C@H](Cc2ccc(O)cc2)NC(=O)[C@H](NC(=O)[C@H](N)Cc2ccc3ccccc3c2)CSSC[C@@H](C(=O)N[C@@H](Cc2ccc3ccccc3c2)C(N)=O)NC1=O [Analog #10] (H-[d2Nal][dC]Y[dW]KVC[2Nal]-NH2; disulfide 2-7) , report its measured Ki. 1150 nM
